tested.on: KRAS_G12D and cRAF (Homo sapiens, UniProt P01116, G12D)
Sequence (P01116 1-188 isoform P01116-2 G12D): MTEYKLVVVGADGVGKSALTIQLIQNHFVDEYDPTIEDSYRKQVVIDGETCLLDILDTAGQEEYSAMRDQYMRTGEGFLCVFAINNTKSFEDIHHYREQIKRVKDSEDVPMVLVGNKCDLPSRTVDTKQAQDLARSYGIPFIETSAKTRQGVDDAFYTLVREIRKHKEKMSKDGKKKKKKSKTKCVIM
assay.notes: Inhibition of KRAS_G12D/cRAF binding (Cisbio binding kit, 665/615 ratio), Effect Embodiment B
experimental.context: read-out: GTP-KRAS-G12D:CRAF IC50
Structures can show the parent of a compound that is named as a salt.
attribute.measured: log10 of IC50 (log10 of the value in nM)
Could you please treat all values as log10 of IC50 in nM?

I'd like to know its log10 of IC50. The compound in question is NCCCCOc1nc(N2CC3CCC(C2)N3)c2cc(Cl)c(-c3cc(O)cc4ccccc34)c(F)c2n1 (single isomer, unassigned) [Compound 95, dihydrochloride]
2.45

I'd like to know its log10 of IC50. The compound in question is C#Cc1c(F)ccc2cccc(-c3c(F)cc4c(N5CC6CCC(C5)N6)nc(OCCCN5C6CCC5COC6)nc4c3F)c12 (single isomer, unassigned) [Compound 272b]
1.89

I'd like to know its log10 of IC50. The compound in question is CN1CCC[C@H]1COc1nc(N2CC3CCC(C2)N3)c2cc(Cl)c(-c3cc(O)cc4ccccc34)c(F)c2n1 (single isomer, unassigned) [Compound 170, dihydrochloride]
1.39

I'd like to know its log10 of IC50. The compound in question is CN1CC(C)(COc2nc(N3CC4CCC(C3)N4)c3cc(Cl)c(-c4cc(O)cc5ccccc45)c(F)c3n2)C1 (single isomer, unassigned)
2.16

I'd like to know its log10 of IC50. The compound in question is Oc1cc(Cl)c(C2CC2)c(-c2c(Cl)cc3c(N4CC5CCC(C4)N5)nc(OC[C@@]45CCCN4C[C@H](F)C5)nc3c2F)c1 (single isomer, unassigned) [Compound 198b]
1.59

###

tested.on: KRAS-G12D and SOS1 (Homo sapiens, UniProt P01116, G12D)
Sequence (P01116 1-188 isoform P01116-2 G12D): as above
assay.notes: Inhibition of KRAS-G12D/SOS1 binding (Cisbio binding kit, 665/615 ratio), Effect Embodiment A
experimental.context: read-out: GTP-KRAS-G12D:SOS1 IC50
Structures can show the parent of a compound that is named as a salt.
attribute.measured: pIC50
Entry type: numeric. Quantity: pIC50, the -log10 of concentration in molar units.

I'd like to know its pIC50. The molecule in question is Oc1cc(-c2c(Cl)cc3c(N4CC5CCC(C4)N5)nc(OCCCN4CC5(CCOC5)C4)nc3c2F)c2ccccc2c1 (single isomer, unassigned) [Compound 263]
7.64

I'd like to know its pIC50. The molecule in question is CN1CCC[C@H]1COc1nc(N2CC3CCC(C2)N3)c2cc(F)c(-c3cc(O)cc4ccccc34)c(F)c2n1 (single isomer, unassigned) [Compound 160b, dihydrochloride]
6.93

I'd like to know its pIC50. The molecule in question is C[C@@H](COc1nc(N2CC3CCC(C2)N3)c2cc(Cl)c(-c3cc(O)cc4ccccc34)c(F)c2n1)CN1CCOC2(CC2)C1 (single isomer, unassigned) [Compound 243]
7.72

I'd like to know its pIC50. The molecule in question is CN(C)CCCCOc1nc(N2CC3CCC(C2)N3)c2cc(Cl)c(-c3cc(O)cc4ccccc34)c(F)c2n1 (single isomer, unassigned) [Compound 60b]
4.14

I'd like to know its pIC50. The molecule in question is CCc1cccc2cc(O)cc(-c3c(F)cc4c(N5CC6CCC(C5)N6)nc(OCCCN5C[C@@H](C)O[C@@H](C)C5)nc4c3F)c12 (single isomer, unassigned) [Compound 283b, dihydrochloride]
5.04

I'd like to know its pIC50. The molecule in question is CCc1cccc2cc(O)cc(-c3c(F)cc4c(N5CC6CCC(C5)N6)nc(OC[C@H](C)CN5C6CCC5CC(OC)C6)nc4c3F)c12 (single isomer, unassigned) [Compound 286a, dihydrochloride]
7.87

I'd like to know its pIC50. The molecule in question is C[C@@H](COc1nc(N2CC3CCC(C2)N3)c2cc(Cl)c(-c3cc(O)cc4ccccc34)c(F)c2n1)CN1CCOC[C@H]1C (single isomer, unassigned) [Compound 239]
7.81

I'd like to know its pIC50. The molecule in question is CN(C)C1CN(c2nc(N3CC(N(C)C)C3)c3cc(Cl)c(-c4cc(O)cc5ccccc45)c(F)c3n2)C1 (single isomer, unassigned) [Compound 9a]
4.09

I'd like to know its pIC50. The molecule in question is C[C@@H]1COC[C@H](C)N1CCCOc1nc(N2CC3CCC(C2)N3)c2cc(Cl)c(-c3cc(O)cc4ccccc34)c(F)c2n1 (single isomer, unassigned) [Compound 175]
6.98

I'd like to know its pIC50. The molecule in question is CN(C)C1CCC(Oc2nc(N3CC4CCC(C3)N4)c3cc(Cl)c(-c4cc(O)cc5ccccc45)c(F)c3n2)C1 (single isomer, unassigned) [Compound 70a, dihydrochloride]
7.03

Ref: patent US20230365563A1
